Value source: patent US8586768B2

assay_system: PKCμ (Homo sapiens, UniProt Q15139)
Construct: purchased Signal Chem (Richmond, BC, Canada)
Sequence (Q15139 whole entry): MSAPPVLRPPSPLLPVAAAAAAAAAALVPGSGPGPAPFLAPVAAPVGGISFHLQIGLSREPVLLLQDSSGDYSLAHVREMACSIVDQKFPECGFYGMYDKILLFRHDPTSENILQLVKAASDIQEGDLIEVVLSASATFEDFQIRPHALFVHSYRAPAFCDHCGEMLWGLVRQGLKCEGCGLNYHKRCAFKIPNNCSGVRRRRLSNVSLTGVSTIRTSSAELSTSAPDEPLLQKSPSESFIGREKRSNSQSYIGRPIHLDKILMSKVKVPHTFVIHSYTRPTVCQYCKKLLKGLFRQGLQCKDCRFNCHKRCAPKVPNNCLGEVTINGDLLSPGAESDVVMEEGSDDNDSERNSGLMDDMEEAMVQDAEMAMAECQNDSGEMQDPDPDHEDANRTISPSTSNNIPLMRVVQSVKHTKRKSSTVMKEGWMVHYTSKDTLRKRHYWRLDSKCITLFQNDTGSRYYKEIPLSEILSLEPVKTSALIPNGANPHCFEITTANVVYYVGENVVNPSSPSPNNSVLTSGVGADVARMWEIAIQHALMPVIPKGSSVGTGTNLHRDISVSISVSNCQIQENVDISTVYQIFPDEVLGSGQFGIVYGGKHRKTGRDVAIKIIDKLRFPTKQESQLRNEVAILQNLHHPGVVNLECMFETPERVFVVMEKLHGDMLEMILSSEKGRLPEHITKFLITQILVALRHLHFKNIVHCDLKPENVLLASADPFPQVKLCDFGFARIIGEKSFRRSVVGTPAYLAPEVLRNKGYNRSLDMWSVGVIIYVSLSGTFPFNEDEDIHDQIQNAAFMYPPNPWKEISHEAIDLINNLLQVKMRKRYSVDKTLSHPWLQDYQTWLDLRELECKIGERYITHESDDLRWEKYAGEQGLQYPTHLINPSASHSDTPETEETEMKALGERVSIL
assay_summary: In-vitro kinase profiling, radioisotope screening assay (Signal Chem)
Format: biochemical
assay_setup: 5 μM compound, 50 μM ATP, vs vehicle control; negative = inhibition
outcome_measure: % activity change (%)
Just the number in %, nothing appended.

# count of solved cases: 3
compound | assay_system | outcome_measure | u | observed
CC(=O)c1c(O)c(C)c(O)c(Cc2c(O)c3c(c(C(=O)/C=C/c4ccccc4)c2O)OC(C)(C)C=C3)c1O [Rottlerin] | PKCμ (Homo sapiens, UniProt Q15139) | % activity change | % | −5
CC(=O)c1c(O)c(C)c(O)c(Cc2c(O)c3c(c4c2OC(c2ccccc2)CC4=O)OC(C)(C)C=C3)c1O (stereo not shown) [PK202] | PKCμ (Homo sapiens, UniProt Q15139) | % activity change | % | 6
Oc1cc(O)c(Cc2c(O)cc(O)cc2O)c(O)c1 [PK103] | PKCμ (Homo sapiens, UniProt Q15139) | % activity change | % | 6

// query Please report the recorded % activity change for CC1(C)C=Cc2c(O)cc(O)c(C(=O)/C=C/c3ccccc3)c2O1 [PK302] .
// result 2

---

Reported values of % activity change for individual entries
assay_system: CamK2a (Homo sapiens, UniProt Q9UQM7)
Construct: purchased Signal Chem (Richmond, BC, Canada)
Sequence (Q9UQM7 whole entry): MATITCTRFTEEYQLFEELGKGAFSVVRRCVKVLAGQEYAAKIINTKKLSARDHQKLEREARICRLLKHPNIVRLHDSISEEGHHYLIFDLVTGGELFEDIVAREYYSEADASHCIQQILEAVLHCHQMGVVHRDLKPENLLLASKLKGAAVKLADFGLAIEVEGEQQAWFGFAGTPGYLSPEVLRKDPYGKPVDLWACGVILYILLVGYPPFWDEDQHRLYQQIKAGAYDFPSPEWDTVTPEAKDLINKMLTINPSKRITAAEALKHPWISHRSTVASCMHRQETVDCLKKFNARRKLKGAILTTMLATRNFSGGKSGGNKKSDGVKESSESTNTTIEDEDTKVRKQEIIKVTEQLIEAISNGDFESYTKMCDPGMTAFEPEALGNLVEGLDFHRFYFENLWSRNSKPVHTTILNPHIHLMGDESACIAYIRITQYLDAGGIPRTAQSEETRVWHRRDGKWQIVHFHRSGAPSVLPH
assay_summary: In-vitro kinase profiling, radioisotope screening assay (Signal Chem)
Format: biochemical
assay_setup: 5 μM compound, 50 μM ATP, vs vehicle control; negative = inhibition
Answer format reminder: number followed by unit.

Reference set, count: 3
molecule | observed
Oc1cc(O)c(Cc2c(O)cc(O)cc2O)c(O)c1 | 6%
CC(=O)c1c(O)c(C)c(O)c(Cc2c(O)c3c(c(C(=O)/C=C/c4ccccc4)c2O)OC(C)(C)C=C3)c1O | 7%
CC(=O)c1c(O)c(C)c(O)c(Cc2c(O)c3c(c4c2OC(c2ccccc2)CC4=O)OC(C)(C)C=C3)c1O (stereo not shown) | 6%

As a next step, examine the molecule that follows.
// query Item CC1(C)C=Cc2c(O)cc(O)c(C(=O)/C=C/c3ccccc3)c2O1 with CamK2a (Homo sapiens, UniProt Q9UQM7) - % activity change?
// result 5%

---

assay_system: PKCγ (Homo sapiens, UniProt P05129)
Construct: purchased Signal Chem (Richmond, BC, Canada)
assay_summary: In-vitro kinase profiling, radioisotope screening assay (Signal Chem)
Format: biochemical
assay_setup: 5 μM compound, 50 μM ATP, vs vehicle control; negative = inhibition
Entries annotated with measured % activity change
Please state the value followed by its unit.

compound | assay_system | observed
CC(=O)c1c(O)c(C)c(O)c(Cc2c(O)c3c(c(C(=O)/C=C/c4ccccc4)c2O)OC(C)(C)C=C3)c1O | PKCγ (Homo sapiens, UniProt P05129) | 6%

// query % activity change lookup needed for CC(=O)c1c(O)c(C)c(O)c(Cc2c(O)c3c(c4c2OC(c2ccccc2)CC4=O)OC(C)(C)C=C3)c1O (stereo not shown) , thanks.
// result 1%

// query # % activity change lookup, item Oc1cc(O)c(Cc2c(O)cc(O)cc2O)c(O)c1
// result 9%

// query Dear colleague, I am looking for the recorded % activity change of the following compound: CC1(C)C=Cc2c(O)cc(O)c(C(=O)/C=C/c3ccccc3)c2O1
// result 32%
